Just for reference, paper PMC12077092 is where these values come from.

Target: T1, P. vivax Duffy-binding protein region II, His-tagged (194-521 aa) (Plasmodium vivax, UniProt P22290 194-521)
T1 construct: also called PvDBPII-His; PvDBP-RII-His; source: HEK293-EBNA1 (HEK293E), transiently transfected, purified from culture supernatant (Ni-NTA); not shown: 8xHis, C-terminal, kept
T1 sequence (P22290 194-521): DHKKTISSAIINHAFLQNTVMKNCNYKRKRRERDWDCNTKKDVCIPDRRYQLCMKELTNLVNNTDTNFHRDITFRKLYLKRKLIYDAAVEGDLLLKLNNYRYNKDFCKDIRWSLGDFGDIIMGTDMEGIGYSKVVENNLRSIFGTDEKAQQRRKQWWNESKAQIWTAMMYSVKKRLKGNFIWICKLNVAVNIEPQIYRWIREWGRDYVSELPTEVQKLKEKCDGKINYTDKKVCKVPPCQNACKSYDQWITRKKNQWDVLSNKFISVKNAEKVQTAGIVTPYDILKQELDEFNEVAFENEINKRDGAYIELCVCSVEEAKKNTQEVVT
Assay: BLI; Gator system, anti-human IgG Fc (HFC) probes; Fc-tagged protein immobilised (10 uM, 120 s); His-tagged protein 1.5 to 100 uM, 300 s association, 600 s dissociation in PBS; 1:1 global fit
Details: both partners purified
pKd: −log10 of the molar value.

[
  {
    "BINDER": "human DARC-Fc (1-63 aa) (Fc fusion, UniProt Q16570 1-63, looked up, Duffy antigen/receptor for chemokines (DARC), human, residues 1-63; also called hDARC; source: HEK293-EBNA1 (HEK293E), transiently transfected, purified from culture supernatant (Protein G)) MGNCLHRAELSPSTENSSQLDFEDVWNSSYGVNDSFPDGDYGANLEAAAPCHSCNLLDDSALP",
    "pKd": 8.57
  }
]
